Method notes: Human HepG2 cell viability assay in 384 well format
Assay type: toxicity, cell-based
Parameters: dose 125 nL, time 70.5 hour; concentration not given beside the values
Reported conditions: HepG2 cells, read-out: Inhibition
Readout kind: cytotoxicity at 70.5 h (%)
Answer with a number only, understood to be in %.

I'd like to know its cytotoxicity at 70.5 h. The compound in question is O=C(NCCCn1ccnc1)N1CCCC1c1ccsc1 (configuration not stated)
24.9

I'd like to know its cytotoxicity at 70.5 h. The compound in question is CCc1cnc(CN(C)C2CCN(CCNS(=O)(=O)CC)C2)o1 (configuration not stated)
2.11

I'd like to know its cytotoxicity at 70.5 h. The compound in question is CCCn1nnnc1CN(c1ccc(N2CCOCC2)cc1)C(C)C
-8.46

I'd like to know its cytotoxicity at 70.5 h. The compound in question is CCCc1noc(C(C)N2CCN(Cc3nc(C)c(C)o3)CC2)n1 (configuration not stated)
0.969

I'd like to know its cytotoxicity at 70.5 h. The compound in question is Cc1oc(-c2ccco2)nc1CC(=O)N1CCN(CC(C)O)CC1 (configuration not stated)
11.6

I'd like to know its cytotoxicity at 70.5 h. The compound in question is CSCCC(=O)N1CCC(c2nnc(CN(C)CCO)n2C)CC1
-2.23

I'd like to know its cytotoxicity at 70.5 h. The compound in question is Cc1cccc(C2(O)CCN(C(=O)c3ccc(N(C)C)cc3)CC2)c1C
9.92

I'd like to know its cytotoxicity at 70.5 h. The compound in question is CCn1cnnc1CNC(=O)N1CCOC(c2ccccc2Cl)C1 (configuration not stated)
-3.84

I'd like to know its cytotoxicity at 70.5 h. The compound in question is O=C(c1n[nH]cc1Cl)N1CCSCC1
-9.46

I'd like to know its cytotoxicity at 70.5 h. The compound in question is CC(c1cccnc1)N(C)Cc1ccccn1 (configuration not stated)
-7.62

I'd like to know its cytotoxicity at 70.5 h. The compound in question is O=C(Cc1ccc2c(c1)OCCO2)N1CCCC(n2ccnc2)C1 (configuration not stated)
18.8

I'd like to know its cytotoxicity at 70.5 h. The compound in question is Cc1c(-c2ccccc2)ncn1CCCNc1cccnc1
-4.84

I'd like to know its cytotoxicity at 70.5 h. The compound in question is COc1c(F)cc(-c2cccc3c2OC(CN)C3)cc1F (configuration not stated)
0.0982

I'd like to know its cytotoxicity at 70.5 h. The compound in question is O=C(C1CCOCC1)N1C[C@H]2C[C@H](OCc3ccccc3)C[C@H]2C1
-3.41

I'd like to know its cytotoxicity at 70.5 h. The compound in question is CCn1nc(C)c(NC(=O)CN(C)C(C)c2ccon2)c1C (configuration not stated)
3.79

I'd like to know its cytotoxicity at 70.5 h. The compound in question is CCN(CC)C(=O)CCNC(=O)Cc1nc(-c2ccco2)oc1C
4.78

I'd like to know its cytotoxicity at 70.5 h. The compound in question is Cn1cc2c(n1)C(CNCC1CCOCC1)OCC2 (configuration not stated)
4.92

I'd like to know its cytotoxicity at 70.5 h. The compound in question is Cc1cccc(N2CCc3ncc(CNS(C)(=O)=O)n3CC2)n1
-11.6

I'd like to know its cytotoxicity at 70.5 h. The compound in question is Cc1ccccc1NC(=O)N1CC[C@@H]2CN(C)S(=O)(=O)[C@@H]2CC1
-8.26

I'd like to know its cytotoxicity at 70.5 h. The compound in question is Cc1nn(C)c(Cl)c1CNCc1ccc(OCC(N)=O)cc1
1.75

I'd like to know its cytotoxicity at 70.5 h. The compound in question is Cc1ccccc1-n1cc(CN(C)C[C@@H]2CCCN3CCCC[C@H]23)cn1
-12.2

I'd like to know its cytotoxicity at 70.5 h. The compound in question is Cc1cc(C)cc(CNC(C)c2c(C)nn(C)c2C)c1 (configuration not stated)
-13.1

I'd like to know its cytotoxicity at 70.5 h. The compound in question is CCN(CC)C(=O)c1ccc(Cl)c(NC(=O)c2cnc(C)cn2)c1
-7.02

I'd like to know its cytotoxicity at 70.5 h. The compound in question is CC(N1CCN(C(=O)NCc2cccc(C#N)c2)CC1)C(F)(F)F (configuration not stated)
-0.642

I'd like to know its cytotoxicity at 70.5 h. The compound in question is c1cnc(NCc2n[nH]c3c2CCN(Cc2cccnc2)C3)nc1
-12.3

I'd like to know its cytotoxicity at 70.5 h. The compound in question is Cc1cc(C(=O)N2CC[C@@H]3CN(c4ncccn4)CCO[C@@H]3C2)c(C)o1
-12.2

I'd like to know its cytotoxicity at 70.5 h. The compound in question is CC(C)Cc1cc(CNC(=O)C2CCCN(C(=O)N(C)C)C2)no1 (configuration not stated)
-2.31

I'd like to know its cytotoxicity at 70.5 h. The compound in question is O=C(CSc1nccc(-c2ccc3c(c2)OCO3)n1)N1CCOCC1
-1.22

I'd like to know its cytotoxicity at 70.5 h. The compound in question is C[C@]1(O)CCN(Cc2c[nH]cn2)C[C@@H]1Oc1cccc(F)c1
-7.83

I'd like to know its cytotoxicity at 70.5 h. The compound in question is Cc1cc(C(=O)N(C)CCCn2cccn2)nc(N)n1
-5.11

I'd like to know its cytotoxicity at 70.5 h. The compound in question is CCn1c(CN(C)C)nnc1C1CCN(Cc2ccc(C)s2)CC1
-2.28

I'd like to know its cytotoxicity at 70.5 h. The compound in question is COCCC(=O)N1CCCC1c1nc(O)cc(-c2ccccn2)n1 (configuration not stated)
-5.06

I'd like to know its cytotoxicity at 70.5 h. The compound in question is FC(F)Oc1ccc(CNCc2cc(Cl)c3c(c2)OCO3)cc1
-5.5

I'd like to know its cytotoxicity at 70.5 h. The compound in question is COc1cc(Cl)c(NCc2c(C)noc2C)cc1OC
-7.06

I'd like to know its cytotoxicity at 70.5 h. The compound in question is CC(C)Cc1ncc2c(n1)CN(C(=O)c1ccc(Cn3ccnc3)o1)C2
-17.7

I'd like to know its cytotoxicity at 70.5 h. The compound in question is O=C1OCCN1Cc1cccc(F)c1C(F)(F)F
-5.55

I'd like to know its cytotoxicity at 70.5 h. The compound in question is O=C(CCNc1ncc2c(n1)CCN2c1ccccc1)N1CCCC1
-9.59

I'd like to know its cytotoxicity at 70.5 h. The compound in question is Cn1cc(C(=O)N2CC[C@@]3(O)CCN(C(=O)C4CCC4)C[C@H]3C2)cn1
3.54

I'd like to know its cytotoxicity at 70.5 h. The compound in question is CCC(CNC1CCN(C(C)=O)CC1)Oc1ccccc1Cl (configuration not stated)
5.02

I'd like to know its cytotoxicity at 70.5 h. The compound in question is COCCN1CCN(CC(=O)N(C)Cc2cccc(F)c2)CC1C (configuration not stated)
0.133

I'd like to know its cytotoxicity at 70.5 h. The compound in question is CCNC(=O)N(C)C1CCN(Cc2ncc(C)c(OC)c2C)CC1
-8

I'd like to know its cytotoxicity at 70.5 h. The compound in question is CN(C)C(=O)c1c[nH]nc1C1CCN(S(=O)(=O)c2cccc(Cl)c2)CC1
9.14

I'd like to know its cytotoxicity at 70.5 h. The compound in question is Cc1cc(CNC(=O)Cc2cccs2)ccc1S(C)(=O)=O
4.24

I'd like to know its cytotoxicity at 70.5 h. The compound in question is CCC(CNC(=O)Cc1cc(C)on1)Oc1cccc(F)c1 (configuration not stated)
0.445

I'd like to know its cytotoxicity at 70.5 h. The compound in question is Cc1noc(C)c1CN1C[C@@H]2COC[C@H](C(=O)N3CCCO3)[C@@H]2C1
31.1

I'd like to know its cytotoxicity at 70.5 h. The compound in question is Cn1cc(-c2cnc(-c3ccnn3C)nc2)cc1C(=O)N1CCCC1
-4.76

I'd like to know its cytotoxicity at 70.5 h. The compound in question is CCC(NC(=O)Nc1ccc(OC)c(C)c1)c1ccncc1 (configuration not stated)
-4.85
